Ref: paper PMC9482650

Target: MAGI2_6, Q86UL8
Sequence (Q86UL8 1141-1229): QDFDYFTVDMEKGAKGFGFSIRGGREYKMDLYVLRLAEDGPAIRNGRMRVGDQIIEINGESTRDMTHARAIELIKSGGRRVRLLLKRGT
Test: holdup assay
Set-up: key: below the threshold = too weak to quantify, mostly under pKd 3.1 to 4
Details: plain residues with an end cap or a label only (N-terminal biotin on a linker: ado-ado)
Binary call on pKd: Satisfied from 4 upward, Not satisfied beneath that.

binder	category
YYKRPVQEWV [MMP24, Q9Y5R2]	Satisfied
KKMPSIESDV [GRIN2A, Q12879]	Satisfied
SAKVRTVTSV [RASL11B, Q9BPW5]	Not satisfied
RRRESYSTTV [EVI5, O60447]	Not satisfied

// switching to the query binder
Ask: Could you verify whether the entry CLREWCDAFL [BANF1, O75531] shows pKd of no less than 4?
Reply: Satisfied
